system: male Fischer 344 rats; test: Kidney weight 24 h after a single i.p. dose; type: in vivo; details: dose 1.0 (head mg/kg; text mmol/kg), i.p. in corn oil, mean ± SE, N = 3–4
Marks after values point to notes of the source that are not given here.
measured-property: Kidney weight

Example entries and their recorded answers appear below.
INSERT INTO assay_data (compound, assay_system, result) VALUES
  ('O=C1CSC(=O)N1c1ccccc1 [PTZD, 3-phenyl-2,4-thiazolidinedione]', 'male Fischer 344 rats', '0.47 ± 0.01 *,^f g/ 100% BW'),
  ('O=C1CSCN1c1cc(Cl)cc(Cl)c1 [4-DCTD, 3-(3,5-dichlorophenyl)-4-thiazolidinone]', 'male Fischer 344 rats', '0.42 ± 0.01^d g/ 100% BW');

Okay, next one:
Item O=C1CSC(=O)N1c1cc(C(F)(F)F)cc(C(F)(F)F)c1 [DFMPT] with male Fischer 344 rats - Kidney weight?
0.48 ± 0.01*,^h g/ 100% BW
